Documented Selectivity across a set of compounds
- System tested: Serotonin 2 receptors; 5-HT2a & 5-HT2c (Homo sapiens) (UniProt P28223+P28335)
- Sequence (P28223 whole entry, looked up): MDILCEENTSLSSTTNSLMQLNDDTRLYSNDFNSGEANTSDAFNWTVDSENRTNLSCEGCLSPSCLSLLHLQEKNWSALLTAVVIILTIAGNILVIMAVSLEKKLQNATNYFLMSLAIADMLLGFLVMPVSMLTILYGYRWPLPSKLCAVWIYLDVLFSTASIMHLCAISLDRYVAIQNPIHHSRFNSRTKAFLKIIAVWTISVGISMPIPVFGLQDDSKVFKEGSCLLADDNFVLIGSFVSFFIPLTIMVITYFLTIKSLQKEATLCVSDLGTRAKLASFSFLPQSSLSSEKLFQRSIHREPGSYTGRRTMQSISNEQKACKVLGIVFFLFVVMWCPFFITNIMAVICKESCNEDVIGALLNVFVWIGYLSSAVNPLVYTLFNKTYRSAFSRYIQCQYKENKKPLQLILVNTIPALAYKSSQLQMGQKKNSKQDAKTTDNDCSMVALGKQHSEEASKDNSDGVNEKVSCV
- Sequence (P28335 whole entry, looked up): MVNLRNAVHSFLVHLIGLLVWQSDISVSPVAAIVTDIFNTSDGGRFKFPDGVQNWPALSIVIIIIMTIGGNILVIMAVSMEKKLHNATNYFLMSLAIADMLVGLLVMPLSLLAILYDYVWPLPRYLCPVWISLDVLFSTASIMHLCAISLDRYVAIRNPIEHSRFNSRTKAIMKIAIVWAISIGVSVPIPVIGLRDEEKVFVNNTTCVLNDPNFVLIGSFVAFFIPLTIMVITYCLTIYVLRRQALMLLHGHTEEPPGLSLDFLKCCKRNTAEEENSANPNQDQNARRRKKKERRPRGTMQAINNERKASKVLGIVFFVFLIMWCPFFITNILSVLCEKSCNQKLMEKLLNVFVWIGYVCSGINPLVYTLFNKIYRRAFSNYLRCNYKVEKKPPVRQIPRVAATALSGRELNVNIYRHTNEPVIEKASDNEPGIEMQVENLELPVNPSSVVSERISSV
- Assay method text: Selectivity index determined from binding affinities of 5-HT2C and 5-HT2A.
- Assay type: protein assay
Would you mind answering with just the numeric figure?

COc1cc2c(cc1C(F)(F)F)N(C(=O)Nc1cc(F)cc(-c3cccnc3)c1)CC2 has a reported Selectivity of 130

The reported Selectivity of the compound COc1cc2c(cc1C(F)(F)F)N(C(=O)Nc1cccnc1)CC2 was 120

Selectivity recorded for this compound, COc1cc2c(cc1C(F)(F)F)N(C(=O)Nc1cccc(-c3cccnc3)c1C)CC2 , is 16

----------
- System tested: Cytochrome P450 3A4 (Homo sapiens)
- Sequence (P08684 whole entry): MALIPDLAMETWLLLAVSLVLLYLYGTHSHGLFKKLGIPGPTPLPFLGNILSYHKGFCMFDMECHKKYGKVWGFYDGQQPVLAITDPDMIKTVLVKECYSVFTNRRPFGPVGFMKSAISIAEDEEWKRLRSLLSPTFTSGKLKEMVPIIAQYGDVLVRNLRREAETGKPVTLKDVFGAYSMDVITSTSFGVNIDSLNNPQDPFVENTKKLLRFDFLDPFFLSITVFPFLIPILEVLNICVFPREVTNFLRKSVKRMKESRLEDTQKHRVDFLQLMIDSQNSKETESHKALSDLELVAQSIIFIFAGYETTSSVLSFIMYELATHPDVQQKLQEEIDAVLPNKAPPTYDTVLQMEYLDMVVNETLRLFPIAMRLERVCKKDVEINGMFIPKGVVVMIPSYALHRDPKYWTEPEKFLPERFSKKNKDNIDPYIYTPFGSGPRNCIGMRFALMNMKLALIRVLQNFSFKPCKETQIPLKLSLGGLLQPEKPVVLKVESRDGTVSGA
- Assay method text: Inhibition of heterologously expressed human cytochrome P450 3A4
- Assay type: ADME
pIC50: −log10 of the molar value.
Reported endpoint: pIC50

Recorded result, Cc1cc2c(cc1C(F)(F)F)N(C(=O)Nc1ccc(Oc3cccnc3C)nc1)CC2 , pIC50: < 4.00

----------
- System tested: Cytochrome P450 1A2 (Homo sapiens)
- Sequence (P05177 whole entry): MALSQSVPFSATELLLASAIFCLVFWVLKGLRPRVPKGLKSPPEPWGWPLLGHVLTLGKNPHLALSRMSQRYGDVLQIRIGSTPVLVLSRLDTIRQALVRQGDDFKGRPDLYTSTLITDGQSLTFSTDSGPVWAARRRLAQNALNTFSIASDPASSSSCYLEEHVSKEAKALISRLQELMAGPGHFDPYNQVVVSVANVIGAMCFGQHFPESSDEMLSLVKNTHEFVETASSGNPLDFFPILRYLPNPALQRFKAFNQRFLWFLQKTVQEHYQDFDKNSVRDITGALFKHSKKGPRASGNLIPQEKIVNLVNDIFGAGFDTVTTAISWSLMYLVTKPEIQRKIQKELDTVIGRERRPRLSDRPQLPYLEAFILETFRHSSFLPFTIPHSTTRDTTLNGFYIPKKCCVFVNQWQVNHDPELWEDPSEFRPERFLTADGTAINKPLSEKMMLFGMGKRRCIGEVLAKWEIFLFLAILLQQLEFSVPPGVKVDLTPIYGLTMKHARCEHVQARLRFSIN
- Assay method text: Inhibition of heterologously expressed human cytochrome P450 1A2
- Assay type: ADME
Reported endpoint: IC50

So, Cc1cc2c(cc1C(F)(F)F)N(C(=O)Nc1ccc(Oc3cccnc3C)nc1)CC2 ? Its IC50 was > 100 µM

----------
- System tested: 5-hydroxytryptamine receptor 2A (Homo sapiens, UniProt P28223)
- Assay method text: Binding affinity towards human cloned 5-hydroxytryptamine receptor 2A in HEK293 cells, using [3H]ketanserin as radioligand.
Reported endpoint: pKi
Bear in mind: pKi is minus log10 of a mol/L concentration; give just that figure.

Example entries begin here.
Mol: COc1cc2c(cc1C(F)(F)F)N(C(=O)Nc1cc(F)c(C)c(-c3cccnc3)c1)CC2
pKi: 5.80

Mol: COc1cc2c(cc1C(F)(F)F)N(C(=O)Nc1ccc(Oc3cccnc3)nc1)CC2
pKi: 7.00

Measured pKi of COc1cc2c(cc1C(F)(F)F)N(C(=O)Nc1ccc(Oc3cccnc3C)nc1)CC2 : 6.10

The recorded pKi for CSc1cc2c(cc1C(F)(F)F)N(C(=O)Nc1cccc(-c3ccncc3)c1)CC2 is 6.80

Looking up COc1cc2c(cc1C(F)(F)F)N(C(=O)Nc1cc3c(c(-c4cccnc4)c1)OCC3)CC2 , I found its pKi recorded as 6.60

COc1cc2c(cc1C(F)(F)F)N(C(=O)Nc1cncc(-c3ccc(F)cc3)c1)CC2 yielded pKi of 6.60

----------
- System tested: Serotonin 2 receptors; 5-HT2a & 5-HT2c (Homo sapiens) (UniProt P28223+P28335)
- Assay method text: Selectivity index determined from binding affinities of 5-HT2C and 5-HT2A.
- Assay type: protein assay
Selectivity values for the compounds below.
I only need the number, thanks.

get_value(item= COc1cc2c(cc1C(F)(F)F)N(C(=O)Nc1ccc(C(C)(C)C)c(-c3cccnc3)c1)CC2 , readout=Selectivity) returns 320

Value of Selectivity reported for the compound COc1cc2c(cc1C(F)(F)F)N(C(=O)Nc1ccc(C)c(-c3cccnc3)c1)CC2 is 5000

Entry under test: COc1cc2c(cc1C(F)(F)F)N(C(=O)Nc1cncc(-c3ccncc3)c1)CC2 . Its Selectivity was 100

Entry COc1cc2c(cc1C(F)(F)F)N(C(=O)Nc1ccc(Cl)c(-c3cccnc3)c1)CC2 , Selectivity reported as 250

Lab note: COc1cc2c(cc1C(F)(F)F)N(C(=O)Nc1cc3c(c(-c4cccnc4)c1)OCC3)CC2 gave Selectivity of 500
